Reference for the values: ChEMBL document CHEMBL3301472

- test_description: MMV: MTT Cytotoxicity Assay Day 7 pi of Assay #6 (compound washed out Day 1 pi), U87-CD4-CCR5 cells, % cell death @ 5mM compound
- Type: toxicity, cell-based
- conditions: human, u87-cd4-ccr5, 5000 µM
observable: % Cell Death
Please respond with just the number, no unit label.

The cases that follow already have their % Cell Death on record.
c1ccc(-c2ccc(-c3nc4ccccc4[nH]3)cc2)cc1
16
COc1ccc(Br)cc1C1Nc2ccc3ccccc3c2C2=C1C(=O)CC(c1ccccc1)C2 (stereo not given)
30
CCOc1cc(Cl)c(C(C)NC(=O)c2cccc(OC)c2)cc1OCC (stereo not given)
10

Request: Name the reported % Cell Death value associated with the compound COc1ccc(CCN2C(=O)c3[nH]nc(-c4cc(Cl)c(C)cc4O)c3C2c2ccccc2F)cc1 (stereo not given)
Result: -35

Request: Name the reported % Cell Death value associated with the compound CC(=O)NCCc1nc2ccccc2n1Cc1ccc(C(C)C)cc1
Result: 34

###

// values below are reported % Cell Death
- test_description: MMV: MTT Cytotoxicity Assay Day 7 pi of Assay #11 (NO washout), U87-CD4-CXCR4 cells, % cell death @ 5mM compound
- Format: toxicity, cell-based
- conditions: human, u87-cd4-cxcr4, 5000 µM

CCOc1ccc(Nc2c3ccccc3nc3ccccc23)cc1.Cl
95

Request: Name the reported % Cell Death value associated with the molecule OC1=C2C(=Nc3ccccc3SC2c2ccccc2)c2ccccc21 (stereo not drawn)
Result: -20

Request: Name the reported % Cell Death value associated with the molecule O=C(Nc1ccc(N2CCN(Cc3ccccc3)CC2)cc1)c1cccs1.O=C(O)C(F)(F)F
Result: 28

###

- test_description: MMV: MTT Cytotoxicity Assay Day 7 pi of Assay #6 (compound washed out Day 1 pi), U87-CD4-CCR5 cells, % cell death @ 5mM compound
- Assay type: toxicity, cell-based
- conditions: human, u87-cd4-ccr5, 5000 µM
observable: % Cell Death
Please respond with just the number, no unit label.

The cases that follow already have their % Cell Death on record.
CC(C)(C)C(=O)Nc1ccc(C(=O)Nc2cccc(-c3nc4ccccc4[nH]3)c2)cc1
18
CCOc1ccc(CCNC(=O)c2cccs2)cc1OCC
-20
Cc1ccc(N2C3c4ccccc4N(S(=O)(=O)c4ccc(C)cc4)C2c2ccccc2N3S(=O)(=O)c2ccc(C)cc2)cc1
0
CCOc1ccc(-c2nc(NC(=O)c3cccc(S(C)(=O)=O)c3)sc2C)cc1
0
CC1(c2ccccc2)Nc2ccccc2-c2nc3ccccc3n21 (stereo not drawn)
-21
Cc1ccc(S(=O)(=O)c2c(COC(=O)c3cccc(C)c3)c(-c3ccccc3)nn2C)cc1
5
O=C(Nc1ccc(N2CCN(Cc3ccccc3)CC2)cc1)c1cccs1.O=C(O)C(F)(F)F
4
COc1ccc(CNC2CCN(c3ccc(NC(=O)c4cccc(Cl)c4)cc3)CC2)cc1OC
28

Request: Name the reported % Cell Death value associated with the compound Nc1ccc(-c2nc3cc(Oc4ccc(Oc5ccc6[nH]c(-c7ccc(N)cc7)nc6c5)cc4)ccc3[nH]2)cc1
Result: 12

Request: Name the reported % Cell Death value associated with the compound OC1=C2C(=Nc3ccccc3SC2c2ccc(Br)cc2)c2ccccc21 (stereo not drawn)
Result: -10

###

- test_description: MMV: MTT Cytotoxicity Assay Day 7 pi of Assay #10 (NO washout), U87-CD4-CCR5 cells, % cell death @ 5mM compound
- Assay type: toxicity, cell-based
- conditions: human, u87-cd4-ccr5, 5000 µM
Note to self: use label 1 only for % Cell Death readings below 20; a reading exactly at 20 still gets label 0.

Below, 4 molecules whose answers are already recorded.
Cc1ccc(Nc2nc(-c3ccccn3)cs2)cc1
label 0
CN1CCN(c2ncnc3c2[nH]c2ccc(Cl)cc23)CC1
label 0
CC(C)=CCN1CCC(C(=O)Nc2ccc(-c3nc4ccccc4[nH]3)cc2)CC1
label 1
CC(C)(C)C(=O)Nc1ccc(C(=O)Nc2cccc(-c3nc4ccccc4[nH]3)c2)cc1
label 1

Request: Criterion: % Cell Death strictly below 20. Is it met by CCOc1cccc2sc(N(Cc3cccnc3)C(=O)C3CCCCC3)nc12 ?
Result: label 0

Request: Criterion: % Cell Death strictly below 20. Is it met by N=c1n(CCN2CCCCC2)c2ccccc2n1CC(=O)c1ccc(Cl)c(Cl)c1 ?
Result: label 1

Request: Criterion: % Cell Death strictly below 20. Is it met by COc1ccc(CN2CCN(Cc3ccccc3)CC2)c(O)c1 ?
Result: label 1

Request: Criterion: % Cell Death strictly below 20. Is it met by Oc1c(CN2CCN(c3ccccc3F)CC2)cc(Br)c2cccnc12 ?
Result: label 0

Request: Criterion: % Cell Death strictly below 20. Is it met by O=C(NC1CCN(Cc2ccccc2)CC1)c1cc(-c2ccncc2)nc2ccc(Cl)cc12 ?
Result: label 1

Request: Criterion: % Cell Death strictly below 20. Is it met by CCCCOc1ccc(C(=O)Nc2cc(C)on2)cc1 ?
Result: label 1

Request: Criterion: % Cell Death strictly below 20. Is it met by Br.CCn1c2c(c(=N)c3c1CCC3)CCCC2 ?
Result: label 1

Request: Criterion: % Cell Death strictly below 20. Is it met by CN(C)c1ccc(N2C(N)=NC(N)=NC2(C)C)cc1 ?
Result: label 1

###

- test_description: MMV: MTT Cytotoxicity Assay Day 7 pi of Assay #6 (compound washed out Day 1 pi), U87-CD4-CCR5 cells, % cell death @ 5mM compound
- Format: toxicity, cell-based
- conditions: human, u87-cd4-ccr5, 5000 µM
// values below are reported % Cell Death
Please respond with just the number, no unit label.

The cases that follow already have their % Cell Death on record.
O=C(NC1CCN(Cc2ccccc2)CC1)c1cc(-c2cccnc2)nc2ccc(Cl)cc12
11
CCOc1ccc2nc(C)cc(Nc3ccc(Br)cc3)c2c1
26

Query compound follows.
Request: Name the reported % Cell Death value associated with the compound Cc1cc(Nc2ccc(C)c(Cl)c2)n2nc(C(F)(F)F)nc2n1
Result: -35

###

- test_description: MMV: MTT Cytotoxicity Assay Day 3 pi, U87-CD4-CCR5 cells, % cell death @ 5mM compound
- Format: toxicity, cell-based
- conditions: human, u87-cd4-ccr5, 5000 µM
observable: % Cell Death
Please respond with just the number, no unit label.

Cc1cc(N(C)C)nc(Nc2ccc(NC(=O)Nc3ccccc3)cc2)n1
12

Query molecule follows.
Request: Name the reported % Cell Death value associated with the molecule CSC1=NC(=Nc2c(C)cccc2C)C2(CCC(C(C)(C)C)CC2)N1c1ccc(Cl)cc1 (stereo not drawn)
Result: 3

###

- test_description: MMV: MTT Cytotoxicity Assay Day 3 pi, U87-CD4-CCR5 cells, % cell death @ 5mM compound
- Type: toxicity, cell-based
- conditions: human, u87-cd4-ccr5, 5000 µM
// values below are reported % Cell Death
Please respond with just the number, no unit label.

The cases that follow already have their % Cell Death on record.
CCCn1c(=N)c(C(=O)NC2CCCCC2)cc2c(=O)n3cccc(C)c3nc21
29
CCOc1cccc(C(=O)Nc2ccc(-c3nc4ccccc4[nH]3)cc2)c1
-33
Cc1ccc(S(=O)(=O)c2c(COC(=O)c3cccc(C)c3)c(-c3ccccc3)nn2C)cc1
27
C[n+]1c2ccccc2nc2ccc(NCCO)cc21
-33
CCOC(=O)c1c[nH]c2c(CC)cccc2c1=O
39
COc1ccc(CCN2C(=O)c3[nH]nc(-c4cc(Cl)c(C)cc4O)c3C2c2ccccc2F)cc1 (stereo not given)
19
COc1ccc(Nc2cc(C)nc(NCc3ccccc3)n2)cc1
41
CCc1ccc(Nc2cc(C)c3ccc(O)cc3n2)cc1.Cl
105

Request: Name the reported % Cell Death value associated with the compound COc1ccc(C2N(C)c3ccccc3N2C)cc1
Result: -7

Request: Name the reported % Cell Death value associated with the compound Cc1cc(Nc2cccc(F)c2)nc(NCc2ccccc2)n1
Result: 21

Request: Name the reported % Cell Death value associated with the compound Oc1c(C(Nc2ccccn2)c2cccc(Oc3ccccc3)c2)ccc2cccnc12 (stereo not given)
Result: 113

Request: Name the reported % Cell Death value associated with the compound Cc1cc(C)c2nc(N3CCC(C(=O)NCCCN4CCC(N5CCCCC5)CC4)CC3)sc2c1
Result: -8

Request: Name the reported % Cell Death value associated with the compound O=C(O)C(=O)O.Oc1ccc(Br)cc1CN1CCN(Cc2cccc(F)c2)CC1
Result: 107

Request: Name the reported % Cell Death value associated with the compound CCCCC(O)(c1ccc(Cl)cc1)C(CN1CCOCC1)c1ccc(Cl)cc1.Cl (stereo not given)
Result: -6

Request: Name the reported % Cell Death value associated with the compound Oc1ccc2ccccc2c1CNc1nc2ccccc2[nH]1
Result: 53

Request: Name the reported % Cell Death value associated with the compound C=CC12CCN(CC1)C(C(O)c1ccnc3ccc(OC)cc13)C2.Cl (stereo not given)
Result: -14

###

// values below are reported % Cell Death
- test_description: MMV: MTT Cytotoxicity Assay Day 7 pi of Assay #10 (NO washout), U87-CD4-CCR5 cells, % cell death @ 5mM compound
- Format: toxicity, cell-based
- conditions: human, u87-cd4-ccr5, 5000 µM
Please respond with just the number, no unit label.

COc1cc(OC)cc(N2C(=O)N(Cc3ccc(C(C)(C)C)cc3)c3ccccc3S2(=O)=O)c1
39

Request: Name the reported % Cell Death value associated with the compound COc1ccc(OC)c(C2C3=C(CC(C)(C)CC3=O)N(c3ccc(Cl)c(Cl)c3)C3=C2C(=O)CC(C)(C)C3)c1
Result: -4

Request: Name the reported % Cell Death value associated with the compound COc1ccc(N2CCN(C(CNC(=O)C3CCCCC3)c3ccc4c(c3)OCO4)CC2)cc1 (centres undefined)
Result: 38

Request: Name the reported % Cell Death value associated with the compound O=C(Nc1nc(-c2ccccn2)cs1)c1ccccc1Br
Result: 118

Request: Name the reported % Cell Death value associated with the compound COc1ccc(-c2nc(N3CCN(C(=O)C4CCCCC4)CC3)c3c4c(sc3n2)CCCC4)cc1
Result: 113
